settings: in methanol, 313.15 K
TEST READOUT: solubility (mole fraction)
No unit in the answer, only the number.

Consider O=CC(NS(=O)(=O)[O-])C(O)C(O)C(O)CO.[Na+] (stereo unspecified) . Its measured solubility (mole fraction) is 0.0007

* * *

conditions: in ethanol, 298.15 K
TEST READOUT: solubility (mole fraction)
No unit in the answer, only the number.

Consider O=CC(NS(=O)(=O)[O-])C(O)C(O)C(O)CO.[Na+] (stereo unspecified) . Its measured solubility (mole fraction) is 0.00021

* * *

conditions: in ethanol, 318.15 K
TEST READOUT: solubility (mole fraction)

Consider O=CC(NS(=O)(=O)[O-])C(O)C(O)C(O)CO.[Na+] (stereo unspecified) . Its measured solubility (mole fraction) is 0.00055
